// provenance: ChEMBL document CHEMBL4011621

# measurement_protocol: Selectivity index, ratio of CC50 for human H1HeLa cells to EC50 for Human rhinovirus A21 infected in human H1HeLa cells
# Type: toxicity, cell-based
# conditions: read-out: Ratio CC50/EC50
endpoint_name: selectivity ratio

Dear colleague, please send me the reported selectivity ratio for CCOC(=O)c1cc2ccc(Oc3ccnc(C(=O)NC)c3)cc2o1 when you can.
> 1.5

Further cases:
Answer with the recorded selectivity ratio of CCOC(=O)c1cc2ccc(Oc3ccnc(C(=O)NC)c3)c(Cl)c2s1 only.
> 13

Supply measured selectivity ratio of CCOC(=O)c1cc2cc(Oc3ccnc(C(=O)NC)c3)ccc2cc1O in your reply.
> 240

Using the record for COc1ccc(OCc2ccc(COc3c(Cl)cccc3Cl)cc2)c(Cl)c1 , state its measured selectivity ratio.
> 50

====

# Tested on: Poliovirus 3
# measurement_protocol: Antiviral activity against Human poliovirus 3 infected in human HeLa cells assessed as protection against virus induced cytopathic effect after 2 days by MTT assay
# Type: functional, cell-based
# conditions: Enterovirus C, 48 h
pEC50: −log10 of the molar value.
Tag: MET if measured pEC50 is not below 7, NOT MET if it is.

Record CCOC(=O)c1ccc2ccc(Oc3ccnc(C(=O)NC)c3)cc2c1 ; criterion: pEC50 no lower than 7. Met?
MET

# check: pEC50 of CNC(=O)c1cc(Oc2ccc3cc(C(=O)OC)sc3c2)ccn1 is greater than or equal to 7
NOT MET

Threshold query (pEC50 >= 7) on CCOC(=O)c1sc2cc(O)ccc2c1C
NOT MET

Check the entry CCOC(=O)c1sc2cc(Oc3ccnc(C(=O)NC)c3)ccc2c1CC : does pEC50 equal or exceed 7?
NOT MET

Evaluate CNC(=O)c1cc(Oc2ccc3cc(C(=O)OC(C)C)sc3c2)ccn1 : pEC50 at minimum 7?
NOT MET

Record CCOC(=O)c1sc2cc(Oc3ccnc(C(=O)OC)c3)ccc2c1C ; criterion: pEC50 no lower than 7. Met?
NOT MET

Check if pEC50 >= 7 (inclusive). Item: CCOC(=O)c1cc2ccc(Oc3ccnc(C(=O)NC)c3)cc2o1
NOT MET

Does CCNC(=O)c1sc2cc(Oc3ccnc(C(=O)NC)c3)ccc2c1C have a reported pEC50 of at least 7?
NOT MET

I'd appreciate it if you could say whether CCOC(=O)c1sc2cc(Oc3ccnc(C(=O)NC)c3)ccc2c1Cl has pEC50 at least equal to 7.
NOT MET

Quick check: does CNC(=O)c1cc(Oc2ccc3ccc(C(=O)Oc4ccccc4)cc3c2)ccn1 have pEC50 greater than or equal to 7?
NOT MET

Please indicate if the recorded pEC50 for CCOC(=O)c1ccc2cc(Oc3ccnc(C(=O)NC)c3)ccc2c1 meets or exceeds 7.
NOT MET

Determine whether measured pEC50 meets or exceeds 7 for CCOC(=O)c1cc2cc(Oc3ccnc(C(=O)NC)c3)ccc2cc1O
NOT MET

Is pEC50 for CCOC(=O)c1cc2ccc(Oc3ccnc(C(=O)NC)c3)cc2s1 at or above 7?
NOT MET

Check the entry CCOC(=O)c1sc2cc(Oc3ccnc(C(=O)NC)c3)ccc2c1N : does pEC50 equal or exceed 7?
NOT MET

====

# Test system: Poliovirus 3
# measurement_protocol: Antiviral activity against Human poliovirus 3 infected in human HeLa cells assessed as protection against virus induced cytopathic effect after 2 days by MTT assay
# Assay type: functional, cell-based
# conditions: Enterovirus C, 48 h
endpoint_name: log10 EC50 (log10 of the value in nM)
log10 EC50, nM

A selection of reference data follows.
Annotate the compound COc1ccc(OCc2ccc(COc3c(Cl)cccc3Cl)cc2)c(Cl)c1 with its measured log10 EC50.
1.90

Provide log10 EC50 value for the following compound: CNC(=O)c1cc(Oc2ccc3c(C)c(C(=O)OC)sc3c2)ccn1
1.94

State its log10 EC50: CCOC(=O)c1sc2cc(Oc3ccnc(C(=O)NC)c3)ccc2c1C
1.97

Specify log10 EC50 for CNC(=O)c1cc(Oc2ccc3c(C)c(C(=O)OC(C)C)[nH]c3c2)ccn1 and stop.
1.86

Note down log10 EC50 recorded for CNC(=O)c1cc(Oc2ccc3c(C)c(C(=O)OC(C)C)sc3c2)ccn1
1.80

---
Quickly give me recorded log10 EC50 for CNC(=O)c1cc(Oc2ccc3ccc(C(=O)OC(C)C)cc3c2)ccn1
1.00

In one line, give reported log10 EC50 of the entry CNC(=O)c1cc(Oc2ccc3ccc(C(=O)OC)cc3c2)ccn1 .
1.64

Complete the entry with log10 EC50 for CCC(C)OC(=O)c1ccc2ccc(Oc3ccnc(C(=O)NC)c3)cc2c1 (stereo not given)
2.54

Give the reported log10 EC50 for this compound. CCOC(=O)c1ccc2ccc(Oc3ccnc(C(=O)NC)c3)cc2n1
3.28
